- measurement.notes: Quantitative High-Throughput drug screen in 47 multiple myeloma cell lines against the NCATS MIPE library collection: KMS12BM_JCRB cell viability assay (AID 1918971); note: nearly all actives have a fitted effect of over 35% in size
- cond: KMS12BM myeloma viability, CellTiter-Glo ATP, 48 h; series mostly up to 45.8 µM
Results filed as inconclusive are left out. The source made the active and inactive calls. Calls come from the whole dose curve; as a rule, active = well fitted cell-killing curve with a large enough effect; inconclusive = small, poorly fitted or top-dose-only effect, or effect the other way; inactive = no such curve, though single readings can be large or run the other way.
Choose the fitting class; nothing outside active, inactive is accepted.

CCCCC(C)(C)[C@H](O)C=C[C@H]1[C@H](O)CC(=O)[C@H]1CC=CCCCC(=O)O	active
CC[C@H](C=C[C@@H](C)[C@H]1CC[C@H]2[C@@H]3CC=C4C[C@@H](O)CC[C@]4(C)[C@@H]3CC[C@]12C)C(C)C	inactive
C[C@H]1O[C@@H](n2cc(F)c(=O)[nH]c2=O)[C@H](O)[C@H]1O	active
CC1C(=O)OC2C(O)C34C5CC(C(C)(C)C)C36C(OC(=O)C6O)OC4(C(=O)O5)C12O (centres undefined)	inactive
CC(O)=C(C#N)C(=O)Nc1ccc(C(F)(F)F)cc1	active

Prompt: Given `O=S(=O)(O)c1ccc2cc(N=Nc3cc(S(=O)(=O)O)c4cccnc4c3O)ccc2c1` , state the outcome it received in this test.
Completion: active

Prompt: Given `CC(C)(CO)[C@@H](O)C(=O)NCCC(=O)O` , state the outcome it received in this test.
Completion: inactive

Prompt: Given CN(C(Cc1ccc(OS(=O)(=O)c2cccc3cnccc23)cc1)C(=O)N1CCN(c2ccccc2)CC1)S(=O)(=O)c1cccc2cnccc12 (centres undefined) , state the outcome it received in this test.
Completion: active

Prompt: Given `NC1(C(=O)N[C@@H](CCO)c2ccc(Cl)cc2)CCN(c2ncnc3[nH]ccc23)CC1` , state the outcome it received in this test.
Completion: inactive

====

- measurement.notes: qHTS of pediatric cancer cell lines to identify multiple opportunities for drug repurposing: Primary screen for A673 cells (AID 1347092); note: nearly all actives have a fitted effect of over 45% in size
- cond: A673 Ewing sarcoma viability, CellTiter-Glo ATP luminescence, 48 h; series mostly up to 46 µM
Results filed as inconclusive are left out. Active and inactive are the calls of the source. Calls come from the whole dose curve; as a rule, active = well fitted cell-killing curve with a large enough effect; inconclusive = small, poorly fitted or top-dose-only effect; inactive = no such curve, though single readings can be large or run the other way.
Choose the fitting class; nothing outside 1 (active), -1 (inactive) is accepted.

Example entries begin here.
Cc1[nH]c(C=C2C(=O)Nc3ccc(S(=O)(=O)N(C)c4cccc(Cl)c4)cc32)c(C)c1C(=O)N1CCN(C)CC1	1
CC(C)C[C@@H](N)[C@H](O)C(=O)N[C@H](C(=O)N[C@H](C(=O)N[C@@H](CC(=O)O)C(=O)O)C(C)C)C(C)C	-1
CN(C)CCOc1ccc(-c2nc(-c3ccc4c(c3)CCC4=NO)c(-c3ccncc3)[nH]2)cc1	1

Prompt: Given `C[C@H](c1ccc(F)cc1CCCC(=O)O)N(c1cc(F)ccc1F)S(=O)(=O)c1ccc(Cl)cc1` , state the outcome it received in this test.
Completion: 1

====

- measurement.notes: Quantitative High-Throughput drug screen in 47 multiple myeloma cell lines against the NCATS MIPE library collection: KMS28PE_JCRB cell viability assay (AID 1918983); note: nearly all actives have a fitted effect of over 35% in size; note: potency is the fitted concentration of half-maximal effect
- cond: KMS28PE multiple myeloma viability, CellTiter-Glo ATP, 48 h; series mostly up to 45.8 µM
Inconclusive results are not listed. Active and inactive are the calls of the source. The call rests on the fitted dose curve; in most records, active means well fitted cell-killing curve with a large enough effect; inconclusive means small, poorly fitted or top-dose-only effect, or effect the other way; inactive means no such curve, though single readings can be large or run the other way.
quantity.kind: Potency

Some molecules with recorded Potency:
CN(C)c1ccc(-c2nc3ncc(Cl)c(N4CCN(CC(=O)Nc5nccs5)CC4)c3[nH]2)cc1	5.26 µM (active)
N#Cc1ccc(Oc2ccc3c(c2)COB3O)cc1	inactive
COc1cc2ncnc(Nc3cc(Br)c(O)c(Br)c3)c2cc1OC	1.48 µM (active)
CN(C)CCCNC(=O)c1ccc(-c2cc(O)c3ncccc3c2)cc1	9.35 µM (active)
CN1CCC(COc2cnc(-c3cccc(Cn4nc(-c5cccc(C#N)c5)ccc4=O)c3)nc2)CC1	inactive
CCN1C[C@H](C)n2c(c(O)c3c(=O)n(Cc4ccc(F)c(Cl)c4)nc(C(=O)NC)c32)C1=O	inactive
CCC(=C(CC)c1ccc(O)cc1)c1ccc(O)cc1	18.7 µM (active)
CC1C(=O)OC2C(O)C34C5CC(C(C)(C)C)C36C(OC(=O)C6O)OC4(C(=O)O5)C12O (stereo not given)	inactive
N#CC(c1ccc(Cl)cc1)c1c(Cl)cc(-n2ncc(=O)[nH]c2=O)cc1Cl (stereo not given)	inactive

Turning now to a further molecule:
Prompt: What measured Potency goes with `COc1ccc2cc1Oc1ccc(cc1)C[C@H]1c3cc(c(OC)cc3CCN1C)Oc1c(OC)c(OC)cc3c1[C@H](C2)N(C)CC3` ?
Completion: 14.8 µM (active)

====

- assayed.target: Calcium and integrin-binding protein 1 (Homo sapiens) (UniProt Q99828)
- Sequence (Q99828 whole entry, looked up): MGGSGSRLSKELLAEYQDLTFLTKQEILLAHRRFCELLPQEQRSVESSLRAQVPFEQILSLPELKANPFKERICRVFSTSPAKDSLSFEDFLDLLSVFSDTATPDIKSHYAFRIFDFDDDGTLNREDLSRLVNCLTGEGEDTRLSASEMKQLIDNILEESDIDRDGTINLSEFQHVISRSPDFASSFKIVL
- measurement.notes: Confirmatory qHTS for Identification of Calcium Integrin Binding Protein 1 (CIB1) Competitor (AID 1508617); note: nearly all actives have a fitted effect of over 65% in size
- cond: CIB1 binding competition assay, biochemical qHTS; series mostly up to 114 µM
Results filed as inconclusive are left out. Active and inactive are the calls of the source. Calls follow the shape of the dose curve; as a rule, active = well fitted inhibition curve with a large enough effect; inconclusive = small, poorly fitted or top-dose-only effect; inactive = no such curve, though single readings can be large or run the other way.
Choose the fitting class; nothing outside Yes = active, No = inactive is accepted.

CO[C@@H]1C(N(C)C(=O)c2ccccc2)C[C@H]2O[C@]1(C)n1c3ccccc3c3c4c(c5c6ccccc6n2c5c31)C(=O)NC4=O (some centres undefined)	Yes

Prompt: Given `CN(C)CCCNC(=O)c1ccc(-c2cc(O)c3ncccc3c2)cc1` , state the outcome it received in this test.
Completion: No

Prompt: Given `Cc1nc(C(=O)NCC(=O)O)c(O)c2ccc(Oc3ccccc3)cc12` , state the outcome it received in this test.
Completion: No

Prompt: Given `C[C@H]1COC2=C1C(=O)C(=O)c1c2ccc2c1CCCC2(C)C` , state the outcome it received in this test.
Completion: No

====

- Tested on: CP291
- measurement.notes: qHTS profiling for inhibitors of Plasmodium falciparum proliferation (AID 504749);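 note: 0% = DMSO vehicle and full inhibition = artemisinin control; nearly all actives have a fitted effect of over 60% in size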
- cond: P. falciparum in erythrocytes, SYBR Green DNA, 72 h; series mostly up to 28.7 µM
Inconclusive results are not listed. Activity calls are given as the source filed them. Calls come from the whole dose curve; as a rule, active = well fitted inhibition curve with a large enough effect; inconclusive = small, poorly fitted or top-dose-only effect; inactive = flat fitted curve, though single readings scatter.
quantity.kind: outcome

Some molecules with recorded outcome:
CC(C)CN(C[C@@H](O)[C@H](Cc1ccccc1)NC(=O)O[C@H]1CO[C@H]2OCC[C@H]21)S(=O)(=O)c1ccc(N)cc1	inactive
Cc1cc2nc3c(=O)[nH]c(=O)nc-3n(CC(O)C(O)C(O)CO)c2cc1C (stereo unspecified)	inactive
CS(=O)(=O)c1ccc(C2=C(c3ccccc3)C(=O)OC2)cc1	inactive
N#CC(c1ccc(Cl)cc1)c1c(Cl)cc(-n2ncc(=O)[nH]c2=O)cc1Cl (stereo unspecified)	inactive
CN1CC(=O)N2C(Cc3c([nH]c4ccccc34)[C@H]2c2ccc3c(c2)OCO3)C1=O (stereo partly specified)	inactive

Turning now to a further molecule:
Prompt: What measured outcome goes with O=C1C(CCC(O)c2ccc(F)cc2)C(c2ccc(O)cc2)N1c1ccc(F)cc1 (stereo unspecified) ?
Completion: inactive

====

- measurement.notes: Quantitative High-Throughput drug screen in 47 multiple myeloma cell lines against the NCATS MIPE library collection: EJM_DSMZ cell viability assay (AID 1918926; note: nearly all actives have a fitted effect of over 30% in size)
- cond: EJM myeloma cell viability, CellTiter-Glo ATP, 48 h; series mostly up to 45.8 µM
Inconclusive results are not listed. Calls of active or inactive are those of the source. Calls come from the whole dose curve; as a rule, active = well fitted cell-killing curve with a large enough effect; inconclusive = small, poorly fitted or top-dose-only effect, or effect the other way; inactive = no such curve, though single readings can be large or run the other way.
Choose the fitting class; nothing outside 1 = active, -1 = inactive is accepted.

CC1=C(CC(=O)O)c2cc(F)ccc2C1=Cc1ccc(S(C)=O)cc1 (centres undefined)	1
CN(C)N=Nc1nc[nH]c1C(N)=O	-1
COc1cc(CNC(=O)CCCCC=CC(C)C)ccc1O	1
C[C@]12C=CC(=O)C=C1CC[C@@H]1[C@@H]2[C@@H](O)C[C@@]2(C)[C@@H]1CC[C@]2(O)C(=O)CO	-1
COc1nc(C)cnc1NS(=O)(=O)c1cccnc1-c1ccc(-c2nnco2)cc1	-1

Prompt: Given `CO[C@H]1/C=C\O[C@@]2(C)Oc3c(C)c(O)c4c(O)c(c(C=NN5CCN(C6CCCC6)CC5)c(O)c4c3C2=O)NC(=O)C(C)=CC=C[C@H](C)[C@H](O)[C@@H](C)[C@@H](O)[C@@H](C)[C@H](OC(C)=O)[C@H]1C` , state the outcome it received in this test.
Completion: 1

Prompt: Given CC1CNc2c(cccc2S(=O)(=O)N[C@@H](CCCN=C(N)N)C(=O)N2CC[C@@H](C)C[C@@H]2C(=O)O)C1 (some centres undefined) , state the outcome it received in this test.
Completion: -1

Prompt: Given `C=C1c2cccc(O)c2C(O)=C2C(=O)[C@@]3(O)C(O)=C(C(N)=O)C(=O)[C@@H](N(C)C)[C@@H]3[C@@H](O)[C@H]12` , state the outcome it received in this test.
Completion: 1

====

- Test system: HaCat
- measurement.notes: Cytotoxic Profiling of Annotated Libraries Using Quantitative High-Throughput Screening (AID 1296008); note: % is set by controls: 0 for no effect and ±100 for the full control effect; nearly all actives have a fitted effect of over 60% in size
- cond: Five cell lines viability, CellTiter-Glo ATP luminescence, 48-72 h; hits give low values
Records with an inconclusive call do not appear.
quantity.kind: max response (%)
Lab book: enter the figure in %, no units written.

Some compounds with recorded max response:
CCCCc1ccc(NS(=O)(=O)c2ccc(C)c(C(=O)N3CCN(c4cccc(C)c4C)CC3)c2)cc1	-17
Cc1ccccc1C(=O)c1ccc(Nc2ccc(Br)cc2N)cc1Cl	-2.01
CC(C)CN(C[C@H](O)[C@H](Cc1ccccc1)NC(=O)O[C@H]1CCOC1)S(=O)(=O)c1ccc(N)cc1	-15.1
C[C@H]1[C@H](O)O[C@@H]2O[C@@]3(C)CC[C@@H]4[C@H](C)CC[C@@H]1[C@@]24OO3	-7.84

Prompt: What measured max response goes with CCNC(=O)CCCC=CC[C@@H]1[C@H](C=CC(O)CCc2ccccc2)[C@@H](O)C[C@@H]1O (stereo not given in full) ?
Completion: 4.63

Prompt: What measured max response goes with COc1ccnc(CS(=O)c2nc3ccc(OC(F)F)cc3[nH]2)c1OC (stereo not given) ?
Completion: -12.5

Prompt: What measured max response goes with `NC(=O)c1nnn(Cc2cc(Cl)c(C(=O)c3ccc(Cl)cc3)c(Cl)c2)c1N` ?
Completion: -5.54

Prompt: What measured max response goes with `C[C@@]1(C(=O)Nc2ccc(F)nc2)CCCN1c1nc(Nc2cc(C3CC3)[nH]n2)c2cccn2n1` ?
Completion: -23.7

Prompt: What measured max response goes with `O=S(=O)(NCCNCC=Cc1ccc(Br)cc1)c1cccc2cnccc12` ?
Completion: -0.249

Prompt: What measured max response goes with COc1nccc(-c2c(-c3ccc(F)cc3)ncn2C2CCC(O)CC2)n1 (stereo not given) ?
Completion: -10.4

Prompt: What measured max response goes with `COc1cc2ncnc(Nc3cc(Br)c(O)c(Br)c3)c2cc1OC` ?
Completion: -28.8

Prompt: What measured max response goes with CN1c2ccccc2C(=O)N2CCc3c([nH]c4ccccc34)C21 (stereo not given) ?
Completion: -3.12

Prompt: What measured max response goes with `O=C(O)c1nc(=O)[nH]c(=O)[nH]1` ?
Completion: 1.83

Prompt: What measured max response goes with `CC(C)CN(C[C@@H](O)[C@H](Cc1ccccc1)NC(=O)O[C@H]1CO[C@H]2OCC[C@H]21)S(=O)(=O)c1ccc(N)cc1` ?
Completion: -16.8

Prompt: What measured max response goes with `COc1cc2c(cc1Cc1cccc(Cl)c1F)c(=O)c(C(=O)O)cn2[C@H](CO)C(C)C` ?
Completion: -24.6

Prompt: What measured max response goes with `Cc1ccc2c(c1)c1c(n2CCc2ccc(C)nc2)CCN(C)C1` ?
Completion: -15.7

Prompt: What measured max response goes with `Cc1nc2c([nH]1)CCN(C(=O)c1ccc(NC(=O)c3ccccc3-c3ccccc3)cc1)c1ccccc1-2` ?
Completion: -0.498

Prompt: What measured max response goes with Cc1cc(C(C)Nc2ccccc2)c2nc(N3CCOCC3)cc(=O)n2c1 (stereo not given) ?
Completion: -24

Prompt: What measured max response goes with `COc1ccc(-c2cc3nccn3c(Nc3ncccc3C(N)=O)n2)cc1OC` ?
Completion: -23.8

Prompt: What measured max response goes with CN1CC(=O)N2C(Cc3c([nH]c4ccccc34)[C@H]2c2ccc3c(c2)OCO3)C1=O (stereo not given in full) ?
Completion: 4.52
